- Study Target: CYP3A (Homo sapiens, UniProt P08684+P20815+P24462+Q9HB55)
- Assay Notes: Inhibition of CYP3A in human liver microsomes using testosterone as substrate preincubated for 5 mins followed by NADPH addition and measured for 10 to 30 mins by LC-MS/MS analysis
- Format: ADME
- Cond: probe testosterone
pIC50: −log10 of the molar value.
Readout Name: pIC50

Input line: Param readout = pIC50; param system = CYP3A (Homo sapiens, UniProt P08684+P20815+P24462+Q9HB55); param query = `Cc1cc(-c2ccc(C(F)(F)F)cn2)[nH]c1C(=O)N[C@@H](CN)c1ncc(CO)s1` ; response: value
Output line: < 4.21

* * *

- Test system: Human immunodeficiency virus 1
- Assay Notes: Antiviral activity against HIV1-3B infected in human H9 cells assessed as inhibition in cell to cell HIV1 transmission to human TZM-bl acceptor cells incubated for 24 hrs by luciferase based assay
- Type: functional, organism-based
- Cond: Human immunodeficiency virus 1, 3B
Readout Name: IC50
I'd appreciate it if you wrote the number followed by its unit.

Input line: Consider the compound shown here: `COc1cnc(-n2cnc(C)n2)c2[nH]cc(C(=O)C(=O)N3CCN(C(=O)c4ccccc4)CC3)c12` What is its recorded IC50?
Output line: 0.02 µM

* * *

- Assay Notes: Apparent permeability from basolateral side to apical side in human Caco2 cells at 5 uM preincubated with vals-podar for 30 mins and measured for 120 mins by LC-MS/MS analysis
- Type: ADME, cell-based
- Cond: Caco-2, with valspodar (printed as vals-podar; concentration not stated)
Readout Name: Papp B→A at 2 h, 5 µM (×10⁻⁶ cm/s)
One number for each entry, in ×10⁻⁶ cm/s.

Input line: Consider the compound shown here: `Cc1cc(-c2ccc(C(F)(F)F)cn2)[nH]c1C(=O)N[C@@H](CN)c1ncc(CO)s1` What is its recorded Papp B→A at 2 h, 5 µM?
Output line: 10.5

Value source: ChEMBL document CHEMBL4402563
